measurement protocol: yeast display, Sf9 membrane polyspecificity reagent, FACS + sequencing; frameworks hold sequencing errors
readout name: polyreactivity (PSR sort gate)

Below, each entry is followed by its recorded polyreactivity (PSR sort gate) result.
chain sequence: QVQLVESGGGLVQAGGSLRLSCAASGSIFLYYVMGWYRQAPGKERELVAAITWDGGSTYYADSVKGRFTISRDNAKNTVYLQMNSLKPEDTAVYYCNKDTTYSYYTEPYDYWGQGTQVTVSS
value: low polyreactivity

chain sequence: QVQLVESCGGLVQAGGSLRLSCAASGGTFGPNAMGWYRQAPGKERELVARISTSGGSTTYYADSVKGRFTISRDNAKNTFYLHMNSLKPEDTAVYYCAADYKPYYRRRYDYWGQGTQVTVSS
value: low polyreactivity

chain sequence: QVQLVESGGGLVQAGGSLRLSCAASGRIFYGYTMGWYREAPGIERELVASITIRGSRTYYADSVKGRFTISRDNAKNTVYLQMTSLKPEDTAVYYCAADFVPARTVHRYDYWGQGTQVTVSS
value: low polyreactivity

chain sequence: QVQLVESGGGLVQAGGSLRLSCAASGSTFGRYAMGWYRQAPGKEREMVAGITYGSTYYADSVKGRFTISRDNAKNTVYLQMNSLKPEDTAVYYCAADLSYTCVHGYRSDTLMDYWGQGTQVTVSS
value: low polyreactivity

chain sequence: QVQLVESGGGLVQAGGSLRLSCAASGFTFWYYAMGWYRQAPGKERELVASISSIGGSTYYADSVKGRFTISRDNAKNTVYLQMNSLKPEDTAVYYCAARYKFLRGGVRRDYWGQGTQVTVSS
value: high polyreactivity

chain sequence: QVQLVESGGGLVQAGGSLRLSCASSGYIFGRYAMGWYRQAPGKERELVAAISSTGDSTYYADSVKGRITISRDNAKNTVYLQMNSLKPEDTAVYYCNAVVPRYSYGRYYYWGQCTQVTVSS
value: high polyreactivity

Pending sequence:
Briefly, polyreactivity (PSR sort gate) measured for QVQLVESGGGLVQAGGSLRLSCAASGSTFTEYAMGWYRQAPGKERELVAGISSDGSTKYADSVKGRFTISRDNAKNTVYLQMNSLKPEDTAVYYCNKDQSYAKYDYWGQGTQVTVSS : low polyreactivity

* * *

measurement protocol: yeast display, Sf9 membrane polyspecificity reagent, FACS + sequencing; frameworks hold sequencing errors
readout name: polyreactivity (PSR sort gate)

Below, each entry is followed by its recorded polyreactivity (PSR sort gate) result.
chain sequence: QVQLVESGGGLVQAGGSLRLSCAASGRIFGYNAMGWYRQAPGKERELVAALSWNGGSTYYADSVKGRFTISRDNAKNTVYLQMNSLKPEDTAVYYCNADPSDRRYPHTWTKMGYWGQGTQVTVSS
value: low polyreactivity
//
chain sequence: QVQLVESGGGLVQAGGSLRLSCAASGIIFYGNAMGWYRQAPGKERELVARITGSDGRTYYADSVKGRFTISRDNAKNTVYLQMNSLKPEDTAVYYCNADRVRTAVYSYVYAYGIMNYWGQGTQVTVSS
value: low polyreactivity
//
chain sequence: QVQLVESGGGLVQAGGSLRLSCAASGRIFWSNAMGWYRQAPGKERELVAAITWRGGSTYADSVKGRFTISRDNAKNTVYLQMNSLKPEDTAVYYCAASPSGWRYDYWGQGTQVTVSS
value: high polyreactivity
//
chain sequence: QVQLVESGGGLVQAGGRLRLSCAASGFILATNAMGWYRQAPGKERELVAAISYSGGSTNYADSVKGRFTISRDNAKNTVYLQMNSLKPEDTAVYYCNAGGTVIWAWYGPVYSWGQGTQVTVSS
value: low polyreactivity
//
chain sequence: QVQLVESGGGLVQAGGSLRLSCAASGSIFPWNAMGWYRQAPGKERELVAAISRGGSTNYADSVKGRFTISRDNAKNTVYLQMNSLKPEDTAVYYCAVYYYSYHWGRGYDYWGQGTQVTVSS
value: high polyreactivity
//
chain sequence: QVPLVESGGGLVQAGGSLRLSCAASGSIFQLYAMGWYRQAPGKEREFVAAITRSGGRTYYADSVKGRFTISRDNAKNTVYIQMNSLKPEDTAVYYCAADWVRNVYYRGYDYWGQGPQVTVSS
value: high polyreactivity

Briefly, polyreactivity (PSR sort gate) measured for QVQLVESGGGLVQAGGSLRLSCAGSGSTFGRYAMGWYRQAPGKERELVAAITSDTGNTNYADSVKGRFTISRDNAKNTVYLQMNSLKPEDTAVYYCAAATFWVLWGHVIGNYDSWGQGTQVTVSS : low polyreactivity

Briefly, polyreactivity (PSR sort gate) measured for QVQLVESGGGLVQAGGSLRLSCAASGRIFSVYAMGWYRQAPGKERELVAAITRVGSTNYADSVKGRFTISRDNAKNTVFLLMNSLKQEDTAVYYCARTYSTRGYYYWGQGTQVTVSS : high polyreactivity

Briefly, polyreactivity (PSR sort gate) measured for QVQLVESGGGLVQAGGSLRLSSAASGRTFYSNAMGWYRQAPGKERELVAAITRGASTKYADSVKGRFTISRDNAKNSVYLQMNSLKPEDTAVYYCDTARYPRYIYDYWGQGTQVTVSS : low polyreactivity

Briefly, polyreactivity (PSR sort gate) measured for QVQLVESGGGLVQAGGSLRLSCAASGSIFSYYAMGWYRQAPGKEREFVAAITKSGGSTYYADSVKGRFTISRDNAKNTVYLQMNSLKPEDTAVYYCAVRYKLYYYGYDYWGQGTQVTVSS : low polyreactivity

Briefly, polyreactivity (PSR sort gate) measured for QVQLVESGGGLVQAGGSLRLSCAASGRTFYWYALGWYRQAPGKERELVAAITKSGGSTYYADSVKGRFTISRDNAKNTVYLQMNSLKPEDTAVYYWAARYLYLLYYWGQGTQVTVSS : high polyreactivity

* * *

measurement protocol: yeast display, Sf9 membrane polyspecificity reagent, FACS + sequencing; frameworks hold sequencing errors
readout name: polyreactivity (PSR sort gate)

chain sequence: QVQLVESGGGLVQAGGSLRLSCAASGFTFNYNARGWYSQAPGNDRELVAAIRRSGGSTYYADSGKGRFTISRDNAKNTVYLQMNSLKPEDTAVYYCAARQSFLYGYWGQGTQVTVSS
readout name: polyreactivity (PSR sort gate)
value: high polyreactivity

chain sequence: QVQLVESGGGLVQAGGSLRLSCAASGRTFFSNAMGWYRQAPGKERELVAVIDSGGSTYYADSVKGRFTISRDNAKNTVYLQMNSLKPEDTAVYYCAADTGTAPSEDYLGQGTQVTVSS
readout name: polyreactivity (PSR sort gate)
value: low polyreactivity

chain sequence: QDQLVESGGGLVQAGGSLRLSCAASGSIFPSNTMGWYRQAPGKERELVAAITGSGGSTYYADSVKGRFTISRDNAKNTVYLQMNSLKPEDTAVYYCAARYRVDGVKYGYWGQGTQVTVSS
readout name: polyreactivity (PSR sort gate)
value: high polyreactivity

chain sequence: QVQLVESGGGLVQAGGSLRLSCAASGSIFSSYVMGWYRQAPGKERELVAAISRSGGSTYYADSVKGRFTISRDNAKNTVYLQMNSRKPEDTAFYYCAADWTRGSPGMDYWGQGTQVTVSS
readout name: polyreactivity (PSR sort gate)
value: high polyreactivity

chain sequence: QVQLVESGGGLVQAGGSLRLSCAASGFTFPWNVMGWYRQAPGKERELVAAITYDGGGTYADSVKGRFTISRDNAKNTVYLQMNSLKPEDTEVYFCNADLIYGEVYDYWGQGTQVTVSS
readout name: polyreactivity (PSR sort gate)
value: low polyreactivity

chain sequence: QVQLVESGGGLVQAGGSLRLSCAASGSIIGRYAMGWYRQAPAKERELVATITFRDTSTYYADSVKGRFTISRDNAKNTVYLQMNSLKTEDTAVYYCAAVRADLWDIARYDYWGQGTQVTVSS
readout name: polyreactivity (PSR sort gate)
value: low polyreactivity

chain sequence: QVQLVESGGGLVQAGGSLRLSCAASGRIFRYNAMGWYRQAPGKERELVAAISQSGGSTYYADSVKGRFTISRDNAMNTVYLQMNSLKPEDTAVYYCGADNYFLGDEDYWGQGTQGTVSS
readout name: polyreactivity (PSR sort gate)
value: high polyreactivity

chain sequence: QVLLQESGGGLVQAGGSLRLCCAASGYISGDQYMGWYRQAPGKEREFVAGIGNGTNTNYADSVKGRFTTSRDNAKNTVYLQMNSLKPEDTAVYYCAADPSDGSTLAYWGQGTQVTVSS
readout name: polyreactivity (PSR sort gate)
value: high polyreactivity

Briefly, polyreactivity (PSR sort gate) measured for QVQLVESGAGLFQAGGSLRLSCAASGRIFNQYGMAWYRQAPGKERELVAAIRSGDSTNYADSVKGRFTISRDNAKNTVFLQMNSLKPEVTAVYYCARDRPGDYDGYDYCGQGTQVTVSS : low polyreactivity

Briefly, polyreactivity (PSR sort gate) measured for QVQLVDSGGGLVQAGGSLRLSCAASGRTIATYTQGWYRHAPGKERELVAAISKSGGSTYYADSVKGRFTISRDNAKNTVYLQMNSLKTEDTAVYYCAKRRSGNVRKYDYWGQGTQVTVSS : high polyreactivity

Briefly, polyreactivity (PSR sort gate) measured for QVQLVESGGGLVQAGGSLRLSCAASGFTFNTNAMGWYRQAPGKETELVAAITWTGGRTYYADSVKGRFTISRDNAKNTVHLQMNSLKPEDTAVYYCAAESFGYSIDITDHEYWGQGTQVTVSS : high polyreactivity
